Hi there, I'd appreciate the recorded selectivity ratio for every entry that follows.
# TEST_NAME: Selectivity index, ratio of CC50 for BALB/c mouse splenocytes to EC50 for amastigote stage of iRFP expressing Leishmania infantum BCN150 infected in BALB/c mouse splenocytes
# Type: toxicity, cell-based
# CONDITION_CONTEXT: read-out: Ratio CC50/EC50
// response body must contain only the number

Input line: Consider the compound shown here: COc1ccccc1[C@@H]1C[C@H](c2ccccc2)c2cccc(P(=O)(c3ccccc3)c3ccccc3)c2N1 (relative stereo) What is its recorded selectivity ratio?
Output line: 34.9

Input line: Field request: selectivity ratio | item: Cc1ccc([C@H]2C[C@@H](c3ccc(F)cc3)Nc3c2cccc3P(=O)(c2ccccc2)c2ccccc2)cc1 (relative stereo)
Output line: 7.47

Input line: So what does the record say about selectivity ratio for COc1ccc([C@@H]2C[C@H](c3ccccc3)c3cccc(P(=S)(c4ccccc4)c4ccccc4)c3N2)cc1 (relative stereo) ?
Output line: 56.9

Input line: What value of selectivity ratio has been reported for the following compound? Cc1ccc([C@H]2C[C@@H](c3ccc(F)cc3)Nc3c2cccc3P(c2ccccc2)c2ccccc2)cc1 (relative stereo)
Output line: 26.2

Input line: Field request: selectivity ratio | item: O=P(c1ccccc1)(c1ccccc1)c1cccc2c(-c3ccc(F)cc3)cc(-c3ccccc3)nc12
Output line: 51.1

Input line: Please report the recorded selectivity ratio for Fc1ccc([C@H]2C[C@@H](c3ccccc3)Nc3c2cccc3P(c2ccccc2)c2ccccc2)cc1 (relative stereo) .
Output line: 51.8

Input line: Name the recorded selectivity ratio for O=P(c1ccccc1)(c1ccccc1)c1cccc2c(-c3ccc(F)cc3)cc(-c3ccc(F)c(F)c3)nc12 .
Output line: 11.1

Input line: What value of measured selectivity ratio is listed for O=P(c1ccccc1)(c1ccccc1)c1cccc2c(-c3ccccc3)cc(-c3ccc4ccccc4c3)nc12 ?
Output line: 13.8

Input line: Given O=[N+]([O-])c1ccc([C@@H]2C[C@H](c3ccccc3)c3cccc(P(=S)(c4ccccc4)c4ccccc4)c3N2)cc1 (relative stereo) , state its recorded selectivity ratio.
Output line: 20.9

Input line: # lookup: selectivity ratio of C[C@@H]1[C@H](O)[C@@H](C)/C=C/C=C/C=C/C=C/C=C/C=C/C=C/[C@H](O[C@@H]2O[C@H](C)[C@@H](O)[C@H](N)[C@@H]2O)C[C@@H]2O[C@](O)(C[C@@H](O)C[C@@H](O)[C@H](O)CC[C@@H](O)C[C@@H](O)CC(=O)O[C@H]1C)C[C@H](O)[C@H]2C(=O)O
Output line: 62.5

Input line: Request the reported selectivity ratio associated with O=P(c1ccccc1)(c1ccccc1)c1cccc2c1N[C@H](c1ccc(F)c(F)c1)C[C@@H]2c1ccc(F)cc1 (relative stereo)
Output line: 43.6

---

# Tested on: Leishmania donovani
# TEST_NAME: Inhibition of Leishmania donovani Top1B expressed in Top1B deficient Saccharomyces cerevisiae EKY3 assessed as decrease in relaxation of supercoiled pSK DNA preincubated for 15 mins followed by DNA addition and measured after 2 to 16 mins by agarose gel electrophoresis
Activity calls are given as the source filed them. The rule behind the calls is not given here.
OBSERVABLE: inhibition

Some compounds with recorded inhibition:
COMPOUND	inhibition
O=P(c1ccccc1)(c1ccccc1)c1cccc2c1N[C@H](c1ccc(F)c(F)c1)C[C@@H]2c1ccc(F)cc1 (relative stereo)	inactive
Cc1ccc([C@H]2C[C@@H](c3ccc(F)cc3)Nc3c2cccc3P(=O)(c2ccccc2)c2ccccc2)cc1 (relative stereo)	inactive
COc1ccc([C@@H]2C[C@H](c3ccc(C)cc3)c3cccc(P(c4ccccc4)c4ccccc4)c3N2)cc1 (relative stereo)	Active
COc1ccccc1[C@@H]1C[C@H](c2ccccc2)c2cccc(P(=O)(c3ccccc3)c3ccccc3)c2N1 (relative stereo)	inactive
O=[N+]([O-])c1ccc([C@@H]2C[C@H](c3ccccc3)c3cccc(P(=S)(c4ccccc4)c4ccccc4)c3N2)cc1 (relative stereo)	inactive
O=P(c1ccccc1)(c1ccccc1)c1cccc2c(-c3ccc(F)cc3)cc(-c3ccccc3)nc12	inactive
Fc1ccc(-c2cc(-c3ccc(F)cc3)c3cccc(P(=S)(c4ccccc4)c4ccccc4)c3n2)cc1	inactive
Cc1ccc([C@H]2C[C@@H](c3ccc(F)cc3)Nc3c2cccc3P(c2ccccc2)c2ccccc2)cc1 (relative stereo)	Active
Fc1ccc([C@H]2C[C@@H](c3ccccc3)Nc3c2cccc3P(c2ccccc2)c2ccccc2)cc1 (relative stereo)	Active

In the following, a different compound is considered.
Input line: Look up inhibition: O=P(c1ccccc1)(c1ccccc1)c1cccc2c(-c3ccccc3)cc(-c3ccc4ccccc4c3)nc12
Output line: inactive

---

Assignment: determine reported CC50 for the given compounds.
# TEST_NAME: Cytotoxicity against BALB/c mouse splenocytes assessed as reduction in cell viability by alamar blue assay
# Assay type: cell-based, Splenocyte

Input line: Form field: reported CC50 of Fc1ccc(-c2cc(-c3ccc(C(F)(F)F)cc3)nc3c(P(=S)(c4ccccc4)c4ccccc4)cccc23)cc1
Output line: 89.7 µM

Input line: CC50 lookup needed for COc1ccc([C@@H]2C[C@H](c3ccccc3)c3cccc(P(=S)(c4ccccc4)c4ccccc4)c3N2)cc1 (relative stereo) , thanks.
Output line: 34.7 µM

Input line: Reported CC50, compound O=P(c1ccccc1)(c1ccccc1)c1cccc2c1N[C@H](c1ccc(F)c(F)c1)C[C@@H]2c1ccc(F)cc1 (relative stereo) : ____
Output line: 63.7 µM

Input line: # get_value(readout='CC50', item= O=P(c1ccccc1)(c1ccccc1)c1cccc2c(-c3ccccc3)cc(-c3ccc4ccccc4c3)nc12 )
Output line: 57.1 µM

Input line: Entry Fc1ccc(-c2cc(-c3ccc(F)cc3)c3cccc(P(=S)(c4ccccc4)c4ccccc4)c3n2)cc1 : reported CC50 = ?
Output line: 92.1 µM

Input line: Name the recorded CC50 for Fc1ccc([C@H]2C[C@@H](c3ccccc3)Nc3c2cccc3P(c2ccccc2)c2ccccc2)cc1 (relative stereo) .
Output line: 90.6 µM

Input line: Fill in: CC50 of O=P(c1ccccc1)(c1ccccc1)c1cccc2c(-c3ccc(F)cc3)cc(-c3ccccc3)nc12 is ___
Output line: 71 µM

Input line: May I ask what CC50 has been recorded for C[C@@H]1[C@H](O)[C@@H](C)/C=C/C=C/C=C/C=C/C=C/C=C/C=C/[C@H](O[C@@H]2O[C@H](C)[C@@H](O)[C@H](N)[C@@H]2O)C[C@@H]2O[C@](O)(C[C@@H](O)C[C@@H](O)[C@H](O)CC[C@@H](O)C[C@@H](O)CC(=O)O[C@H]1C)C[C@H](O)[C@H]2C(=O)O [AMPHOTERICIN B] ?
Output line: > 20 µM

Input line: May I ask what CC50 has been recorded for COc1ccccc1[C@@H]1C[C@H](c2ccccc2)c2cccc(P(=O)(c3ccccc3)c3ccccc3)c2N1 (relative stereo) ?
Output line: 34.2 µM

Input line: Find the recorded CC50 belonging to O=P(c1ccccc1)(c1ccccc1)c1cccc2c(-c3ccc(F)cc3)cc(-c3ccc(F)c(F)c3)nc12 and report it.
Output line: 23.9 µM

Input line: Entry COc1ccc([C@@H]2C[C@H](c3ccc(C)cc3)c3cccc(P(c4ccccc4)c4ccccc4)c3N2)cc1 (relative stereo) : reported CC50 = ?
Output line: > 50 µM

Input line: Would you mind telling me what CC50 value was observed for Cc1ccc([C@H]2C[C@@H](c3ccc(F)cc3)Nc3c2cccc3P(=O)(c2ccccc2)c2ccccc2)cc1 (relative stereo) ?
Output line: 13.8 µM

Input line: # query: CC50 of entry O=[N+]([O-])c1ccc([C@@H]2C[C@H](c3ccccc3)c3cccc(P(=S)(c4ccccc4)c4ccccc4)c3N2)cc1 (relative stereo)
Output line: 57 µM

Input line: Could you share which CC50 value was measured for Cc1ccc([C@H]2C[C@@H](c3ccc(F)cc3)Nc3c2cccc3P(c2ccccc2)c2ccccc2)cc1 (relative stereo) ?
Output line: 47 µM

---

# SYSTEM_UNDER_TEST: DNA topoisomerase 1 (Homo sapiens)
# Sequence (P11387 whole entry): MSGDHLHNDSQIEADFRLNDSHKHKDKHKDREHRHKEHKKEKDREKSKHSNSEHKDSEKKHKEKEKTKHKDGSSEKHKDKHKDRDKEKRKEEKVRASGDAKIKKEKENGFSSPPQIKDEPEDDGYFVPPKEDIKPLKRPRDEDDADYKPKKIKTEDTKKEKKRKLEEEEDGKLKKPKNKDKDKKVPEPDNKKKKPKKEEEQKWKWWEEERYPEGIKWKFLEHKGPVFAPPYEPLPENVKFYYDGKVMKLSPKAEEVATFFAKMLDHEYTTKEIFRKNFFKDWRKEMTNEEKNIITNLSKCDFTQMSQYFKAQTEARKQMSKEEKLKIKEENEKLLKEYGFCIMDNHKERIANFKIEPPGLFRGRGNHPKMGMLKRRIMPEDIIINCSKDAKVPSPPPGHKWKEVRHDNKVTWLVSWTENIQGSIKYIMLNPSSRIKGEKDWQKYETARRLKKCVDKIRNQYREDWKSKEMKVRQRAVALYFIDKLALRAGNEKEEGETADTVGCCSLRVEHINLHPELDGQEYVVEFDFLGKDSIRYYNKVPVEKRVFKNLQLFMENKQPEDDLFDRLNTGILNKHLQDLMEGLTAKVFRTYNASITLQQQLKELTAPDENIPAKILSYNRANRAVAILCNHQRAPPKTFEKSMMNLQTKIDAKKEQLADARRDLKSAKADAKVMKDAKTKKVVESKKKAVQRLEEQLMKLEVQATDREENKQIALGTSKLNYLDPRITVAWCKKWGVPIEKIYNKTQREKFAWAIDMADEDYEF
# TEST_NAME: Inhibition of human Top1B expressed in Top1B deficient Saccharomyces cerevisiae EKY3 assessed as decrease in relaxation of supercoiled pSK DNA preincubated for 15 mins followed by DNA addition and measured after 5 mins by agarose gel electrophoresis

COMPOUND	IC50
Cc1ccc([C@H]2C[C@@H](c3ccc(F)cc3)Nc3c2cccc3P(=O)(c2ccccc2)c2ccccc2)cc1 (relative stereo)	Not Active
O=P(c1ccccc1)(c1ccccc1)c1cccc2c1N[C@H](c1ccc(F)c(F)c1)C[C@@H]2c1ccc(F)cc1 (relative stereo)	Not Active
CC[C@@]1(O)C(=O)OCc2c1cc1n(c2=O)Cc2cc3ccccc3nc2-1	Not Active
COc1ccccc1[C@@H]1C[C@H](c2ccccc2)c2cccc(P(=O)(c3ccccc3)c3ccccc3)c2N1 (relative stereo)	Not Active
